Cited source for all entries: patent US10479795B2

target_system: PI3Kγ (p110γ) Recombinant Human Protein (Homo sapiens (Human))
Sequence (P48736 whole entry): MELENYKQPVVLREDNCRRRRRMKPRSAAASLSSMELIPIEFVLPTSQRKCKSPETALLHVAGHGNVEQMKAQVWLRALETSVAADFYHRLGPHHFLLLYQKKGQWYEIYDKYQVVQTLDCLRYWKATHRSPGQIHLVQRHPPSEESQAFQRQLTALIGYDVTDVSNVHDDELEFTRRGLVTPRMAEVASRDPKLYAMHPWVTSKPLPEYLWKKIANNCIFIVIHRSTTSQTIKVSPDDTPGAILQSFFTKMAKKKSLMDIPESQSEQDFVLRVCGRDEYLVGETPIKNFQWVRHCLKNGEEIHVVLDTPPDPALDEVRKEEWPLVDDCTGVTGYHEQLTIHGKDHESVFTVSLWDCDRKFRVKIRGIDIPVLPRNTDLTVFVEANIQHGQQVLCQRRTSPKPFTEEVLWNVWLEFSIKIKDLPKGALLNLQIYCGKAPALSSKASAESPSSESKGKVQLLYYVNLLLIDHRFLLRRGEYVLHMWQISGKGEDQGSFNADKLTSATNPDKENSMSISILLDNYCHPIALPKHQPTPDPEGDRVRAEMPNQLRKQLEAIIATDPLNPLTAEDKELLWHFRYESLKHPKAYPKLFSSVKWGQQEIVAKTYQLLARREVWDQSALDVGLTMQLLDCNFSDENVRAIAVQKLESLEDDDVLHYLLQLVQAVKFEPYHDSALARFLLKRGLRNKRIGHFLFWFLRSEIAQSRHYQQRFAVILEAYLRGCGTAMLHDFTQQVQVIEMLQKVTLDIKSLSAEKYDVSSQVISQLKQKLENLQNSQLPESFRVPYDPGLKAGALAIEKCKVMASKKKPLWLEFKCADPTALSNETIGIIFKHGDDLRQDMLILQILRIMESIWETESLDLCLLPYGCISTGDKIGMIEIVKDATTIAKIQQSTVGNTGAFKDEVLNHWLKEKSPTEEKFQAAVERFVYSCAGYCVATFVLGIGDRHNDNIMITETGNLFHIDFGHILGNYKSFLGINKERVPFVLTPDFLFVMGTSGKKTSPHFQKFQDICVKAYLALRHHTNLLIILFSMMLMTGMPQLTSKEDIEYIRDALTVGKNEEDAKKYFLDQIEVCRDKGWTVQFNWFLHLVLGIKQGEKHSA
method_notes: PI3K-γ Scintillation Proximity Assay
Format: biochemical
particulars: read-out: PI3Kγ IC50
Experimental: [γ-^33P]ATP (10 mCi/mL) and Wheat Germ Agglutinin (WGA) YSi SPA Scintillation Beads was purchased from Perkin-Elmer (Waltham, Mass.). […] PI3Kγ (p110γ) Recombinant Human Protein was purchased from Life technology (Grand Island, N.Y.). ATP, MgCl2, DTT, EDTA, MOPS and CHAPS were purchased from Sigma-Aldrich (St. Louis, Mo.). The kinase reaction was conducted in polystyrene 384-well Greiner Bio-one white plate from Thermo Fisher Scientific in a final volume of 25 μL. […]
pIC50: −log10 of the molar value. Where a name gives a salt, the structure may show the parent alone.
readout_kind: pIC50

Past entries and their recorded results:
CNC(=O)c1ccc(F)c(-c2cn3c(-c4cc(S(=O)(=O)N[C@H]5CC[C@H](O)CC5)ccc4C)cnc3c(N)n2)c1    > 7.00
Cc1ccc(S(=O)(=O)N[C@H]2CC[C@](C)(O)CC2)cc1-c1cnc2c(N)nc(C(F)(F)F)nn12 [Example 327, trifluoroacetate salt]    > 7.00

Switching to the query record.
Entry C[C@]1(O)CC[C@H](NS(=O)(=O)c2cc(-c3cnc4c(N)nc(-c5ccncc5F)cn34)ccc2F)CC1 — recorded pIC50 = > 7.00

====

target_system: PI3Kδ (p110δ/p85α) Recombinant Human Protein (Homo sapiens (Human), UniProt O00329)
Sequence (O00329 whole entry): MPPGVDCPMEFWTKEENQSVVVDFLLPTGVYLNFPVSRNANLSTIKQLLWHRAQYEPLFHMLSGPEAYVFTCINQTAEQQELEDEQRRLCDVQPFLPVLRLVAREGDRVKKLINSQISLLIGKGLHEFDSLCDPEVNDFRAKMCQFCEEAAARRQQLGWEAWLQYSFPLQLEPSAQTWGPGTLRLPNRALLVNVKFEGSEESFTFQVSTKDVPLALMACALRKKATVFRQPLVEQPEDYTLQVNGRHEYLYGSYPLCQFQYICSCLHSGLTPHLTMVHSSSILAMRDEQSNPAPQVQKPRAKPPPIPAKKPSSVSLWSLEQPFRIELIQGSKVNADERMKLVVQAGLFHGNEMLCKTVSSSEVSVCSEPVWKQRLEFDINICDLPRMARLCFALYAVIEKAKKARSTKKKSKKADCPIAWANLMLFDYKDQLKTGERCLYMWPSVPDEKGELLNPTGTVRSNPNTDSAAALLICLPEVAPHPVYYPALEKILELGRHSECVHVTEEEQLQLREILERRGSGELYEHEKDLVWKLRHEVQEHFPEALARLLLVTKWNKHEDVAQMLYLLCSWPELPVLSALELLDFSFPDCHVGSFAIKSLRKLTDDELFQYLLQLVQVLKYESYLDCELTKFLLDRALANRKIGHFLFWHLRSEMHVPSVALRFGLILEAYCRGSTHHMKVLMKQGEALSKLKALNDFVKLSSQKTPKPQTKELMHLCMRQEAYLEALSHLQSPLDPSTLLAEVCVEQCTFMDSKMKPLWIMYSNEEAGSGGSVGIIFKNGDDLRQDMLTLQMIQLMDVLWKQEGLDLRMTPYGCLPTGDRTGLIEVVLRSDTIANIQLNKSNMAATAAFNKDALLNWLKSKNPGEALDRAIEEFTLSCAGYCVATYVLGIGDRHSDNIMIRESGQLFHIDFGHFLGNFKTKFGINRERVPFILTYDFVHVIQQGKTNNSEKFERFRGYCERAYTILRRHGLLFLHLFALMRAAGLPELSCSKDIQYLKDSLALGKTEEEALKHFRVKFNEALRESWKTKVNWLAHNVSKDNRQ
Sequence (P27986 whole entry partner): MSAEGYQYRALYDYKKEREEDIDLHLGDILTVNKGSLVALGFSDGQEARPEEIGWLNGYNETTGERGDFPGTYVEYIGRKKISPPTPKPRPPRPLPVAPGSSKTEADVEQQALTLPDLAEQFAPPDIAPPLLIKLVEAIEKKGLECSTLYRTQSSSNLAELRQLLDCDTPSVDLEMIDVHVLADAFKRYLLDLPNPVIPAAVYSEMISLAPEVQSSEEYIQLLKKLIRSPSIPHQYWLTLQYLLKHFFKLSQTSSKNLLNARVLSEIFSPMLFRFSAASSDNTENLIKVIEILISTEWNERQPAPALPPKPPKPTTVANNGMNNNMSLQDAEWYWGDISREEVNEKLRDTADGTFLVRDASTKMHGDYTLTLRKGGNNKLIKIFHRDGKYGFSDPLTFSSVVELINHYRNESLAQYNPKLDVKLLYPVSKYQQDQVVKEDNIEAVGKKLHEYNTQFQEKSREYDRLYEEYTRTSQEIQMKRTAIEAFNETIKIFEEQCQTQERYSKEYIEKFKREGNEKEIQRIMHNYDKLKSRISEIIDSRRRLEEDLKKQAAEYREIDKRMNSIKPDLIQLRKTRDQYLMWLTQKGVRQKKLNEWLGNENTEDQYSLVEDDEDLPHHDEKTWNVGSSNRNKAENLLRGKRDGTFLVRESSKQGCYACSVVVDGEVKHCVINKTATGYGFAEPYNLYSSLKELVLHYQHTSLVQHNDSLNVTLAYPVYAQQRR
method_notes: PI3Kδ Scintillation Proximity Assay
Where a name gives a salt, the structure may show the parent alone.
Measured IC50 by item

Worked examples follow.
Cc1ccc(S(C)(=O)=O)cc1-c1cnc2c(N)nc(-c3cccc(OCC#N)c3)cn12 [Example 486, trifluoroacetate]    100 to 500 nM
Cc1ccc(S(=O)(=O)NC23CC(C(F)(F)F)(C2)C3)cc1-c1cnc2c(N)ncnn12 [Example 97, trifluoroacetate salt]    100 to 500 nM

Continue with the compound presented below.
get_value(item= Cc1noc(C23CC(NS(=O)(=O)c4ccc(C)c(-c5cnc6c(N)nc(C(F)(F)F)cn56)c4)(C2)C3)n1 [Example 293, trifluoroacetate salt] , readout=IC50) returns 100 to 500 nM

====

Collected pIC50 values appear next to each entry.
target_system: PI3Kδ (p110δ/p85α) Recombinant Human Protein (Homo sapiens (Human), UniProt O00329)
method_notes: PI3Kδ Scintillation Proximity Assay
pIC50: −log10 of the molar value. Structures can show the parent of a compound that is named as a salt.

Cc1ccc(S(=O)(=O)N2CC[C@@H](C#N)C2)cc1-c1cnc2c(N)ncnn12 [Example 150]    5.70 to 6.30
Cc1nc(N)c2ncc(-c3cc(S(=O)(=O)NC45CCC(CO)(CC4)OC5)cc(F)c3C)n2n1 [Example 404, trifluoroacetate salt]    > 7.00

Reported pIC50 of Cc1ccc(S(=O)(=O)CCC(F)(F)F)cc1-c1cnc2c(N)ncnn12 [Example 493, trifluoroacetate] : < 5.70

Field pIC50 (entry Cc1ccc(S(=O)(=O)N[C@H]2CC[C@H](O)CC2)cc1-c1cnc2c(N)nc(-c3ccnn3C)cn12 [Example 28] ) reads 6.30 to 7.00

// field: pIC50; key: Cc1ccc(S(=O)(=O)N[C@H]2C[C@](C)(C#N)C2)cc1-c1cnc2c(N)ncnn12 [Example 87, trifluoroacetate salt] ; value = 6.30 to 7.00
